- System Tested: (Homo sapiens, UniProt P00519)
- Construct: gene ABL1; Abl kinase
- Sequence (P00519 whole entry): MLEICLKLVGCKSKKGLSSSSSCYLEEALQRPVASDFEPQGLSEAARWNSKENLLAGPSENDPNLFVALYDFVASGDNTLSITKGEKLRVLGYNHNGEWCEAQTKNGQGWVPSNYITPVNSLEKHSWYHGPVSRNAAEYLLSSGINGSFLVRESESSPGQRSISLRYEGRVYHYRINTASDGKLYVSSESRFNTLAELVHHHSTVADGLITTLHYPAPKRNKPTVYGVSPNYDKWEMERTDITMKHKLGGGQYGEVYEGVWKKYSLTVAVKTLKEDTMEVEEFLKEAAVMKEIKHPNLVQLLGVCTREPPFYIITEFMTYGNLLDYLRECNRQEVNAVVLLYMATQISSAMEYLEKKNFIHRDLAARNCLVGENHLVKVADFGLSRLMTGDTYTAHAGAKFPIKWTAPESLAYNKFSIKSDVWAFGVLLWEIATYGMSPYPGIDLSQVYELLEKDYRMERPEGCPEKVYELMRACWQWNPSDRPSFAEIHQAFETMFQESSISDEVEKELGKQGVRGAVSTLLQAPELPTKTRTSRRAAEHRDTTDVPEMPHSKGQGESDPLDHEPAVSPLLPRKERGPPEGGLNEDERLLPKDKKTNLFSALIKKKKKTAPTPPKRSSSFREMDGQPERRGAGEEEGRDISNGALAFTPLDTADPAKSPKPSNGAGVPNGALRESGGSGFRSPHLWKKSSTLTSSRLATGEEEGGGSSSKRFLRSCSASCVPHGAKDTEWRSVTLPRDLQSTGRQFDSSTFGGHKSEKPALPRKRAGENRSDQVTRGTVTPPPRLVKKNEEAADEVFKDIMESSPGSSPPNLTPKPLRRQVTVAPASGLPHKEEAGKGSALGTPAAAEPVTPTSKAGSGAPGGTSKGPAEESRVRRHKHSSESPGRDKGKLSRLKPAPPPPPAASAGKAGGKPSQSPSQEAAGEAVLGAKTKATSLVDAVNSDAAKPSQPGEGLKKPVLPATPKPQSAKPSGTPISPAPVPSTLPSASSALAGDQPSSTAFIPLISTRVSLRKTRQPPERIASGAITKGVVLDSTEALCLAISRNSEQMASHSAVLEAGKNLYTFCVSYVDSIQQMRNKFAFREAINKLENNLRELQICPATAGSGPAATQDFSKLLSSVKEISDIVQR
- Measurement Description: […] kinase assay, P-81 phosphocellulose
- Format: biochemical
- Assay Setup: read-out: IC50 (μM) ^a / CDK2/Cyclin E
Reported Metric: IC50

-- ask Name the recorded IC50 of the compound listed here: CCOC(=O)C(CCn1nc(C)c2nc(SC)nnc21)C(=O)OCC
-- reply > 50 µM

These data points were gathered from paper PMC6982861.
